Biological target: hGIPR (Homo sapiens, UniProt P48546)
Construct: expressed in transfected cells; host or cells: CHO cells carrying a CRE-luciferase reporter gene
Sequence (P48546 22-466): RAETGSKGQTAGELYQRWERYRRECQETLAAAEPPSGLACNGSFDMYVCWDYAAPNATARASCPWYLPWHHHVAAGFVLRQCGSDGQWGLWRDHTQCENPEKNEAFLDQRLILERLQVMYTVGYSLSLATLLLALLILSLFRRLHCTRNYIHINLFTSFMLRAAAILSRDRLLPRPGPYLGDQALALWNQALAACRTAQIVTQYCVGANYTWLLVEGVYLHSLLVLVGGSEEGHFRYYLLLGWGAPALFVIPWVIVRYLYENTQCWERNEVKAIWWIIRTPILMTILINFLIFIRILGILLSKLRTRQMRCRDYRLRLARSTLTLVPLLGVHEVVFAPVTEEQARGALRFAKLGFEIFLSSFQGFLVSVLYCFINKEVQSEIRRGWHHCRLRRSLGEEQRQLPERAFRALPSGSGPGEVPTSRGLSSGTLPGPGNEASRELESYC
Test: hGIPR CreLuc reporter gene assay in 0.5% and 100% plasma
Format: cell-based
Details: CreLuc reporter gene assay, 100% human plasma; read-out: hGIPR 100% hP
Protocol: Example 1: hGLPR/hGIPR/hNPY2R CreLuc Assay in 0.5% and 100% Plasma CHO and HEK-293 recombinant cell lines express a luciferase reporter gene under control of the cAMP responsive element (CRE). […] Following incubation, assay plates are equilibrated to room temperature, followed by addition of 25 μl of Bright-GIo™ Luciferase reagent, incubation at room temperature for 10 minutes and analysis of luminescence (Envision Reader). […]
Starred links: 1 amine or outer side, 2 acyl side, 3 side chain; linkers in the order of their positions; H or OH if unused. Non-standard residues stand in square brackets, D forms with d. Groups on a side chain read outwards from the residue. No end group written: not given here. *: point of attachment. C20 diacid = O=C(O)CCCCCCCCCCCCCCCCCCC(=O)*; C18 diacid = O=C(O)CCCCCCCCCCCCCCCCC(=O)*; γGlu = O=C(O)[C@H](CCC(=O)[*:2])N[*:1]; εLys = N[C@@H](CCCCN[*:1])C(=O)[*:2]; AEEA = NCCOCCOCC(=O)O; Aib = CC(C)(N)C(=O)O
observable: EC50 (nM)
Report only the number, with the unit nM understood.

substance	scale unit	EC50
Y[Aib]EGTFTSDYSI[Aib]LEKQAQ[Aib]AFVEWLIK([AEEA-AEEA-γGlu-γGlu-γGlu-γGlu-C18 diacid])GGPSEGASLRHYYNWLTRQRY-NH2 [Compound 297]	nM	0.93
H-Y[Aib]EGTFTSDYSI[Aib]LEKQAQ[Aib]AFVEWLIK([AEEA-AEEA-γGlu-γGlu-γGlu-C18 diacid])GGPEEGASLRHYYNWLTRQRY-NH2 [Compound 248]	nM	0.79

So, H-Y[Aib]EGTFTSDYSI[Aib]LEKQAQ[Aib]EFVEWLIK([εLys-γGlu-γGlu-γGlu-γGlu-γGlu-γGlu-γGlu-C20 diacid])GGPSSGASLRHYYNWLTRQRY-NH2 [Compound 88] ? Its EC50 was 1.58

====

target: hNPY2R (Homo sapiens); construct: expressed in transfected cells; host or cells: HEK-293 cells carrying a CRE-luciferase reporter gene; assay: hNPY2R CreLuc reporter gene assay in 0.5% and 100% plasma; type: cell-based; conditions: CreLuc reporter gene assay, 100% human plasma; read-out: hNPY2R 100% hP
Sequence (P49146 whole entry): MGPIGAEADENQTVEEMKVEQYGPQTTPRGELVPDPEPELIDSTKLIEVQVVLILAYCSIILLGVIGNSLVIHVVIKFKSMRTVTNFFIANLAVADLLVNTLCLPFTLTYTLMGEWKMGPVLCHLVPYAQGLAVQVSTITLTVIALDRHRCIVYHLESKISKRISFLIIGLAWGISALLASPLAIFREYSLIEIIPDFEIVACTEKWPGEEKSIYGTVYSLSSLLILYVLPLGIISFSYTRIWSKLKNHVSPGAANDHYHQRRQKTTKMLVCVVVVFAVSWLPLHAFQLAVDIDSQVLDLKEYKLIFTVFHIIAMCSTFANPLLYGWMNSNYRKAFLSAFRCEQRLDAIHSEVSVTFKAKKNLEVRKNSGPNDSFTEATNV
Starred links: 1 amine or outer side, 2 acyl side, 3 side chain; linkers in the order of their positions; H or OH if unused. Non-standard residues stand in square brackets, D forms with d. Groups on a side chain read outwards from the residue. *: point of attachment. C20 diacid = O=C(O)CCCCCCCCCCCCCCCCCCC(=O)*; C18 diacid = O=C(O)CCCCCCCCCCCCCCCCC(=O)*; γGlu = O=C(O)[C@H](CCC(=O)[*:2])N[*:1]; εLys = N[C@@H](CCCCN[*:1])C(=O)[*:2]; AEEA = NCCOCCOCC(=O)O; Aib = CC(C)(N)C(=O)O
observable: pEC50
Remember the convention: pEC50 equals -log10 of concentration in molar.

Before answering, review these 5 worked examples.
substance	system name	pEC50
H-Y[Aib]EGTFTSDYSI[Aib]LEKQAQ[Aib]AFVEWLIK([AEEA-AEEA-γGlu-γGlu-γGlu-γGlu-C18 diacid])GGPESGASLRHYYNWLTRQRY-NH2 [Compound 163]	hNPY2R (Homo sapiens)	7.26
H-Y[Aib]EGTFTSDYSI[Aib]LEKQAQ[Aib]EFVEWLIK([AEEA-AEEA-γGlu-γGlu-γGlu-γGlu-C18 diacid])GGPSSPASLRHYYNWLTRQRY-NH2 [Compound 56]	hNPY2R (Homo sapiens)	7.31
H-Y[Aib]EGTFTSDYSI[Aib]LEKQAQ[Aib]AFVEWLIK([εLys-γGlu-γGlu-γGlu-γGlu-γGlu-γGlu-C20 diacid])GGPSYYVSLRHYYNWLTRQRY-NH2 [Compound 80]	hNPY2R (Homo sapiens)	7.26
H-Y[Aib]EGTFTSDYSI[Aib]LEKQAQ[dR]AFVEWLIK([εLys-γGlu-γGlu-γGlu-γGlu-γGlu-γGlu-C20 diacid])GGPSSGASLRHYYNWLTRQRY-NH2 [Compound 216]	hNPY2R (Homo sapiens)	7.78
H-Y[Aib]EGTFTSDYSI[Aib]LEKQAQ[Aib]AFVEWLIK([εLys-γGlu-γGlu-γGlu-γGlu-γGlu-γGlu-C20 diacid])GGPSEYVSIRHYYNWLTRQRY-NH2 [Compound 42]	hNPY2R (Homo sapiens)	7.72

So, H-Y[Aib]EGTFTSDYSI[Aib]LEKQAQ[Aib]AFVQWLIK([AEEA-AEEA-γGlu-γGlu-γGlu-C18 diacid])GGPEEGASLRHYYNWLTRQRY-NH2 [Compound 144] ? Its pEC50 was 7.31

So, H-Y[Aib]EGTFTSDYSI[Aib]LEKQAQ[Aib]EFVQWLIK([εLys-γGlu-γGlu-γGlu-γGlu-γGlu-γGlu-C18 diacid])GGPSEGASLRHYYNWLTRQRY-NH2 [Compound 153] ? Its pEC50 was 7.23

So, H-Y[Aib]EGTFTSDYSI[Aib]LEKQAQ[Aib]AFIEWLIK([γGlu-γGlu-γGlu-γGlu-C18 diacid])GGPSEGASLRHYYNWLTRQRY-NH2 [Compound 247] ? Its pEC50 was 7.19

So, H-Y[Aib]EGTFTSDYSI[Aib]LEKQAQ[Aib]AFVEWLIK([εLys-γGlu-γGlu-γGlu-γGlu-γGlu-γGlu-C20 diacid])GGPSEYESLRHYYNWLTRQRY-NH2 [Compound 93] ? Its pEC50 was 7.07

Values from patent US20240247080A1
